System: T47D
METHOD_SUMMARY: Cytotoxicity against human T47D cells by sulforhodamine B method
Assay type: functional, cell-based
As shown below, each of these compounds has a reported IC50 value.
MEASUREMENT_NAME: IC50 (nM)

>>> df
                                   compound  target_of_assay  measurement_name  result_modifier  quantitative_result
0  Nc1ccn([C@@H]2O[C@H](CO)[C@@H](O)[C@@H]2O)c(=O)n1 [CYTARABINE]             T47D              IC50                =                 2700
1  O=c1ccn([C@@H]2[Se][C@H](CO)[C@@H](O)[C@@H]2O)c(=O)[nH]1             T47D              IC50                >               100000
2  O=c1ccn([C@@H]2[Se][C@H](CO)[C@@H](O)[C@@H]2F)c(=O)[nH]1             T47D              IC50                >               100000
3  Nc1ccn([C@@H]2[Se][C@H](CO)[C@@H](O)[C@@H]2F)c(=O)n1             T47D              IC50                =                  790

###

System: K562
METHOD_SUMMARY: Cytotoxicity against human K562 cells by sulforhodamine B method
Assay type: functional, cell-based
pIC50: −log10 of the molar value.
As shown below, each of these molecules has a reported pIC50 value.
MEASUREMENT_NAME: pIC50

>>> df
                                   molecule  target_of_assay  measurement_name  result_modifier  quantitative_result
0  O=c1ccn([C@@H]2[Se][C@H](CO)[C@@H](O)[C@@H]2O)c(=O)[nH]1             K562             pIC50                <                 4.00
1  Nc1ccn([C@@H]2[Se][C@H](CO)[C@@H](O)[C@@H]2O)c(=O)n1             K562             pIC50                =                 4.06
2  Nc1ccn([C@@H]2O[C@H](CO)[C@@H](O)[C@@H]2O)c(=O)n1 [CYTARABINE]             K562             pIC50                =                 7.30
3  Nc1ccn([C@@H]2[Se][C@H](CO)[C@@H](O)[C@@H]2F)c(=O)n1             K562             pIC50                =                 6.20
4  O=c1ccn([C@@H]2[Se][C@H](CO)[C@@H](O)[C@@H]2F)c(=O)[nH]1             K562             pIC50                <                 4.00
